Could you please report measured IC50 for the items listed next?
biological target: Amyloid-beta precursor protein (Homo sapiens, UniProt P05067); test: Inhibition of amyloid-beta (unknown origin) aggregation at 1:10 compound:amyloidbeta ratio incubated for 24 hrs by ThT fluorescence assay
Sequence (P05067 whole entry): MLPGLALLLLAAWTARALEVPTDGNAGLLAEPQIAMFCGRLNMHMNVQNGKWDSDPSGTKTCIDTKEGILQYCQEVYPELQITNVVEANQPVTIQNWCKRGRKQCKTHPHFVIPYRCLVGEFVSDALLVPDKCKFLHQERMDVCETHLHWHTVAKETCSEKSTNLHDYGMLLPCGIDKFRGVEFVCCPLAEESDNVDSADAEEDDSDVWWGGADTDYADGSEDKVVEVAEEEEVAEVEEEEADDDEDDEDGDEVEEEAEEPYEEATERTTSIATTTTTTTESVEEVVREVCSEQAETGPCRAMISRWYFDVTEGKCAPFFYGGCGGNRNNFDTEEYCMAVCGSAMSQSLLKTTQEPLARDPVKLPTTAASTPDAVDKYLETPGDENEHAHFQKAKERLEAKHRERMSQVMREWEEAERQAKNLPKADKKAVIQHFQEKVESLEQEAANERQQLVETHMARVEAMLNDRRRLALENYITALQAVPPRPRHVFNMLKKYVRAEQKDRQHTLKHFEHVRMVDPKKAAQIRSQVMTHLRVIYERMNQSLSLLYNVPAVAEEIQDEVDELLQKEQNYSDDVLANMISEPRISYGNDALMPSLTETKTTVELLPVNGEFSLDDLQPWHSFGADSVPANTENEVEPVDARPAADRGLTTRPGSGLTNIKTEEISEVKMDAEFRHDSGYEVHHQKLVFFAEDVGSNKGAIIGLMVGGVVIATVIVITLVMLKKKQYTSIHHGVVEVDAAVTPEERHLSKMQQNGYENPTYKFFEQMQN
Field format: number, assumed µM, no unit text.

Look up IC50: CC(C)(C)OC(=O)N[C@H](CNc1c(N[C@@H](CC(N)=O)C(=O)O)c(=O)c1=O)Cc1ccccc1
17.5

Try this compound too: CC(C)(C)OC(=O)N[C@H](CNc1c(N[C@@H](Cc2ccccc2)C(=O)O)c(=O)c1=O)Cc1ccccc1
14.6

Try this compound too: CC(C)[C@H](Nc1c(NC[C@H](Cc2ccccc2)NC(=O)OC(C)(C)C)c(=O)c1=O)C(=O)O
7.71

Try this compound too: C[C@H](O)[C@H](Nc1c(NC[C@H](Cc2ccccc2)NC(=O)OC(C)(C)C)c(=O)c1=O)C(=O)O
8.08

* * *

test system: N2a; test: Cytotoxicity against mouse Neuro2a cells assessed as reduction in cell viability at 50 uM incubated for 48 hrs by Alamar blue assay; type: toxicity, cell-based
Result type: Activity

# Smiles data, Endpoint value
measured = [
    ("CC(C)(C)OC(=O)N[C@H](CNc1c(N[C@@H](CS)C(=O)O)c(=O)c1=O)Cc1ccccc1", "Non-Toxic"),
    ("CC(C)(C)OC(=O)N[C@H](CNc1c(N[C@@H](Cc2c[nH]cn2)C(=O)O)c(=O)c1=O)Cc1ccccc1", "Non-Toxic"),
    ("CC(C)(C)OC(=O)N[C@H](CNc1c(N[C@@H](CCC(N)=O)C(=O)O)c(=O)c1=O)Cc1ccccc1", "Non-Toxic"),
    ("CSCC[C@H](Nc1c(NC[C@H](Cc2ccccc2)NC(=O)OC(C)(C)C)c(=O)c1=O)C(=O)O", "Non-Toxic"),
]
